Molecular target: T1, full-length human Tau (flTau) (human, UniProt P10636-8 1-441)
T1 construct: range 1-441; bought (SignalChem); also called human Tau-441
T1 sequence (P10636 other isoform, or with tags, fused parts or gaps limits assumed): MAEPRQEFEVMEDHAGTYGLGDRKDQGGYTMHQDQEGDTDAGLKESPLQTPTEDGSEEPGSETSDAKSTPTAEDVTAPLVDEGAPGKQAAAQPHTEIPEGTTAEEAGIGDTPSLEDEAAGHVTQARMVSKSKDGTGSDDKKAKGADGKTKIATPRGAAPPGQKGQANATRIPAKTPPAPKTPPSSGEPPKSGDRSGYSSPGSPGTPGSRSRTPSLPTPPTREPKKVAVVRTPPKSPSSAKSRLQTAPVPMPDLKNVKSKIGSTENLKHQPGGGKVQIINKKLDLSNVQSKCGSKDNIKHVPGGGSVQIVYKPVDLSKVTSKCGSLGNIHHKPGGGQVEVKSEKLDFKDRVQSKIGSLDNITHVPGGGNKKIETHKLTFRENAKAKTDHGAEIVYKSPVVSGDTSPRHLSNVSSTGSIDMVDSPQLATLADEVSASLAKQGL
Experiment: SPR, hybridoma Ab on anti-IgG chip, flTau analyte
Description: Affinity of non-purified antibodies in serum-free hybridoma supernatants was estimated by surface plasmon resonance using a Biacore T-100 instrument (GE Healthcare, United Kingdom). Antibodies were immobilized onto an anti-IgG biosensor chip, and flTau (SignalChem, Canada) was used as the target analyte. Kinetic analysis was done using a 1:1 Langmuir fit model. For affinity measurements to flTau, antibodies were measured using SPR on a Biacore instrument, with the KDs determined. […]
Listing: Kd of selected binders
Reported endpoint: Kd (pM)

37D3-H9 (antibody, mouse IgG2a, V domains shown, also called 37D3-H9 mIgG2a; 37D3-H9 IgG) VH: EVQLVESGGDLAKPGGSLKLSCTASGLIFRSYGMSWVRQTPDKRLEWVATINSGGTYTYYPDSVKGRFTISRDNAKNTLYLQMSSLKSEDTAMYYCANSYSGAMDYWGQGTSVTVSS VL: DDLLTQTPLSLPVSLGDPASISCRSSQSIVHSNGNTYFEWYLQKPGQSPKLLIYKVSNRFSGVPDRFSGSGSGTDFTLKISRVEAEDLGVYYCFQGSLVPWTFGGGTKLEIK
1000
63H3-D8 (antibody, V domains shown, hybridoma supernatant) VH: QIQLVQSGPELKKPGETVKISCKASGYTFTSHGMSWVKQAPGKGLKWMGWINTYSGVPTYADDFKGRFAFSLETSASTAYLQINNLKNEDTATYFCARSELSWFAYWGQGTLVTVSA VL: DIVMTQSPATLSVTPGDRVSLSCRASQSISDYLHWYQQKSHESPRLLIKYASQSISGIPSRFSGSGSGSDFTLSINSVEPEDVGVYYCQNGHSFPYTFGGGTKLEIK
500
